Target: T1, 4H454-bA
T1 chain: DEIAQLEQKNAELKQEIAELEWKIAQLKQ
Experiment: two-hybrid library CCNG1;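 note: natural log of median RNA to DNA barcode read ratio; higher means stronger binding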
Listing: interaction score of selected binders
Measured Attribute: interaction score

# Binder, Measured Attribute, Measured Number
records = [
    ("DEIAQLEQKIAELKQENAELEWEIAQLKQ [4H338-bA]", "interaction score", 2.01),
    ("DKIAQLKQEIAELEQEIAELKWKNAQLKQ [4H2576-bA]", "interaction score", 0.611),
    ("DKIAQLKQENAELEQKIAELKWEIAQLEQ [4H2729-bA]", "interaction score", 1.84),
    ("DEIAQLEQENAELKQKIAELKWENAQLEQ [4H235-bA]", "interaction score", 0.0882),
    ("DKNAQLEQEIAELKQKNAELEWEIAQLEQ [4H3185-bA]", "interaction score", -1.66),
    ("DENAQLEQENAELKQKIAELKWEIAQLEQ [4H1257-bA]", "interaction score", 1.77),
    ("DKNAQLEQKIAELEQENAELKWEIAQLKQ [4H3354-bA]", "interaction score", -1.24),
]
